- System: Colon 26
- PROTOCOL: Effective concentration required to give 50% cell kill with 4 J/cm**2 of light.(Dark and light induced toxicity towards murine colon carcinoma cell line(COLO-26 cells))
- Type: functional, cell-based
- MEASUREMENT_PARAMETERS: Mus musculus, Colon 26, light or radiation study
RECORDED_ENDPOINT: EC50 (µM)

O=S(=O)(O)c1ccc(-c2c3nc(c(-c4ccc(S(=O)(=O)O)cc4)c4ccc([nH]4)c(-c4ccc(S(=O)(=O)O)cc4)c4ccc([nH]4)c(-c4ccc(S(=O)(=O)O)cc4)c4nc2C=C4)C=C3)cc1 = 125
O=S(=O)(O)c1ccc(-c2c3nc(c(-c4ccc(F)cc4)c4ccc(s4)c(-c4ccc(F)cc4)c4nc(c(-c5ccc(S(=O)(=O)O)cc5)c5ccc2s5)C=C4)C=C3)cc1 = 1.6
O=S(=O)(O)c1ccc(-c2c3nc(c(-c4ccc(F)cc4)c4ccc([se]4)c(-c4ccc(F)cc4)c4nc(c(-c5ccc(S(=O)(=O)O)cc5)c5ccc2[se]5)C=C4)C=C3)cc1 = 7.9
O=S(=O)(O)c1ccc(-c2c3nc(c(-c4ccc(F)cc4)c4ccc([se]4)c(-c4ccc(F)cc4)c4nc(c(-c5ccc(S(=O)(=O)O)cc5)c5ccc2s5)C=C4)C=C3)cc1 = 1.2

---

- Test system: Colon 26
- PROTOCOL: Effective concentration required to give 50% cell kill with 4 J/cm**2 of light.(Dark and light induced toxicity towards murine colon carcinoma cell line(COLO-26 cells))
- Format: functional, cell-based
- MEASUREMENT_PARAMETERS: Mus musculus, Colon 26, light or radiation study
Here the recorded log10 of EC50 is given for each entry.
RECORDED_ENDPOINT: log10 of EC50 (log10 of the value in nM)

O=C(O)COc1ccc(-c2c3nc(c(-c4ccc(F)cc4)c4ccc(s4)c(-c4ccc(F)cc4)c4nc(c(-c5ccc(OCC(=O)O)cc5)c5ccc2s5)C=C4)C=C3)cc1 = 2.63
O=S(=O)(O)c1ccc(-c2c3nc(c(-c4ccc(F)cc4)c4ccc(s4)c(-c4ccc(F)cc4)c4nc(c(-c5ccc(S(=O)(=O)O)cc5)c5ccc2[se]5)C=C4)C=C3)cc1 = 3.32
Cc1ccc(-c2c3nc(c(-c4ccc(S(=O)(=O)O)cc4)c4ccc(s4)c(-c4ccc(S(=O)(=O)O)cc4)c4nc(c(-c5ccc(C)cc5S(=O)(=O)O)c5ccc2s5)C=C4)C=C3)c(S(=O)(=O)O)c1 = 4.08
O=C(O)COc1ccc(-c2c3nc(c(-c4ccccc4)c4ccc(s4)c(-c4ccccc4)c4nc(c(-c5ccc(OCC(=O)O)cc5)c5ccc2s5)C=C4)C=C3)cc1 = 2.18
O=S(=O)(O)c1ccc(-c2c3nc(c(-c4ccc(S(=O)(=O)O)cc4)c4ccc(s4)c(-c4ccc(S(=O)(=O)O)cc4)c4nc(c(-c5ccc(S(=O)(=O)O)cc5)c5ccc2s5)C=C4)C=C3)cc1 = 4.48

---

pEC50: recorded values
- Tested on: Colon 26
- PROTOCOL: Effective concentration required to give 50% cell kill with 4 J/cm**2 of light.(Dark and light induced toxicity towards murine colon carcinoma cell line(COLO-26 cells))
- Assay type: functional, cell-based
- MEASUREMENT_PARAMETERS: Mus musculus, Colon 26, light or radiation study
pEC50: −log10 of the molar value.
RECORDED_ENDPOINT: pEC50

O=S(=O)(O)c1ccc(-c2c3nc(c(-c4ccc(S(=O)(=O)O)cc4)c4ccc([se]4)c(-c4ccc(S(=O)(=O)O)cc4)c4nc(c(-c5ccc(S(=O)(=O)O)cc5)c5ccc2[se]5)C=C4)C=C3)cc1 = < 4.00
O=S(=O)(O)c1ccc(-c2c3nc(c(-c4ccc(C(F)(F)F)cc4)c4ccc(s4)c(-c4ccc(C(F)(F)F)cc4)c4nc(c(-c5ccc(S(=O)(=O)O)cc5)c5ccc2s5)C=C4)C=C3)cc1 = < 4.00
O=S(=O)(O)c1ccc(-c2c3nc(c(-c4ccc(S(=O)(=O)O)cc4)c4ccc([nH]4)c(-c4ccc(S(=O)(=O)O)cc4)c4ccc(s4)c(-c4ccc(S(=O)(=O)O)cc4)c4nc2C=C4)C=C3)cc1 = < 4.00
